Target: rat A1 receptors (rA1) (Rattus norvegicus)
Construct: to A1 receptors from rat cerebral cortical membranes; from tissue; host or cells: rat cerebral cortical (brain) membranes
Sequence (P25099 1-326): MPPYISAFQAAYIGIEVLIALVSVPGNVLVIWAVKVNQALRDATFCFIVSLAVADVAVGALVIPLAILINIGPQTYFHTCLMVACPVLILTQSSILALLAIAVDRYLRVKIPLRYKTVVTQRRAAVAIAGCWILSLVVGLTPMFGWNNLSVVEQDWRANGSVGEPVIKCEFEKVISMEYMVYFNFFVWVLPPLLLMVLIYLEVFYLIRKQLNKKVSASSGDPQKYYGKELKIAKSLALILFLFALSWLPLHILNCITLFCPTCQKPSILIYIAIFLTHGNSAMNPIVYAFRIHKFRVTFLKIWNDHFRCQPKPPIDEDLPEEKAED
Test: Displacement of [3H]R-PIA binding in rat brain (cerebral cortical) membranes
Settings: Table 4; read-out: rA1 Ki
pKi: −log10 of the molar value.
Quick reference: pKi of the listed items.

- compound: "CCCn1c(=O)c2[nH]c(-c3ccc(OCC(=O)NN4C(=O)C=C(c5ccccc5)C4=O)cc3)nc2n(CCC)c1=O [Compound 49]"
  pKi: 6.65
- compound: "CCCn1c(=O)c2[nH]c(-c3ccc(OCC(=O)NN4C(=O)C[C@H](NC(=O)C(F)(F)F)C4=O)cc3)nc2n(CCC)c1=O [Compound 44]"
  pKi: 7.13
- compound: "CCCn1c(=O)c2[nH]c(-c3ccc(OCC(=O)NN4C(=O)C5=C(CCCC5)C4=O)cc3)nc2n(CCC)c1=O [Compound 56]"
  pKi: 7.21
- compound: "CCCn1c(=O)c2[nH]c(-c3ccc(OCC(=O)NN4C(=O)C(c5ccccc5)=C(c5ccccc5)C4=O)cc3)nc2n(CCC)c1=O [Compound 50]"
  pKi: 7.02
- compound: "CCCn1c(=O)c2[nH]c(-c3ccc(OCC(=O)NN)cc3)nc2n(CCC)c1=O [Compound 4f]"
  pKi: 7.80
- compound: "CCCn1c(=O)c2[nH]c(-c3ccc(OCC(=O)NN4C(=O)[C@H]5CC=CC[C@H]5C4=O)cc3)nc2n(CCC)c1=O [Compound 52]"
  pKi: 7.44
- compound: "CCCn1c(=O)c2[nH]c(-c3ccc(OCC(=O)NNC(=O)[C@H](CCC(=O)O)NC(=O)C(F)(F)F)cc3)nc2n(CCC)c1=O [Compound 60]"
  pKi: 7.15

* * *

biological target: human A2B receptors (hA2B) (Homo sapiens, UniProt P29275); construct: expressed in transfected cells; host or cells: HEK-293 (HEK-A2B, G418-selected); assay: Radioligand binding ([125I]ABOPX / [3H]ZM241385) at human A2B receptors expressed in HEK-293 cells; conditions: Table 4; Ki ratio
Sequence (P29275 whole entry): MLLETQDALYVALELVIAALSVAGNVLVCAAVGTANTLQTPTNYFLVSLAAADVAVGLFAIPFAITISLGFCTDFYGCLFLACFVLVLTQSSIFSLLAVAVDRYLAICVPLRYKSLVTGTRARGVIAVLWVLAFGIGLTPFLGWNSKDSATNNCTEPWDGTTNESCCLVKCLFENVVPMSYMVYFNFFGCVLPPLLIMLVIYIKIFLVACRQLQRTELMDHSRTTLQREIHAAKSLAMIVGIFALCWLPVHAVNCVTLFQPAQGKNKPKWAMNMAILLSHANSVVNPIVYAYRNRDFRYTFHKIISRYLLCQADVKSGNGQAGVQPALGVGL
Quick reference: rA1/hA2B of the listed items.

- compound: "CCCn1c(=O)c2[nH]c(-c3ccc(OCC(=O)NN4C(=O)CC(O)CC4=O)cc3)nc2n(CCC)c1=O"
  rA1/hA2B: 1.6
- compound: "CCCn1c(=O)c2[nH]c(-c3ccc(OCC(=O)NN4C(=O)C5=C(CCC5)C4=O)cc3)nc2n(CCC)c1=O"
  rA1/hA2B: 1.9
- compound: "CCCn1c(=O)c2[nH]c(-c3ccc(OCC(=O)NNC(=O)C4CC=CCC4C(=O)O)cc3)nc2n(CCC)c1=O (stereo not shown)"
  rA1/hA2B: 2.6
- compound: "CCCn1c(=O)c2[nH]c(-c3ccc(OCC(=O)NNC(=O)C4=C(C(=O)O)CCCC4)cc3)nc2n(CCC)c1=O"
  rA1/hA2B: 2.7

Where these numbers come from: patent US6545002B1
